The measurements presented in this section are drawn from patent US11945824B2.

Tested on: Human RSV-A (“Long” strain)
ASSAY_EXPLANATION: RSV-A assay (CPE, ATPlite readout in Hep-2 cells)
Format: cell-based
CONDITION_CONTEXT: human respiratory syncytial virus, 120 h; Hep-2 cells, MOI 0.1, 5-day incubation, ATPlite; read-out: Human RSV-A (“Long” strain) EC50
PARAMETER_MEASURED: EC50

{"columns": ["COMPOUND", "PARAMETER_MEASURED", "RESULT"],
 "data": [
  ["COc1cc(C(=O)NC[C@](O)(c2cc3c(c(-c4ccc(F)cc4)n2)OC[C@]3(C)n2cnnc2)C(F)(F)F)cc2cccnc12 [Example 7]", "EC50", "> 200 nM"],
  ["COc1cc(C(=O)NC[C@](C)(O)c2cc3c(c(-c4ccc(F)cc4)n2)OC[C@@]3(n2cnnc2)C(F)(F)F)ccc1OC1CC1 [Example 2]", "EC50", "< 200 nM"],
  ["COc1cc(C(=O)NC[C@](O)(c2cc3c(c(-c4ccc(F)cc4)n2)OC[C@]3(C)Cc2ncc[nH]2)C(F)(F)F)cc2cccnc12 [Example 23]", "EC50", "< 200 nM"]
]}
